# Test system: 786-0 renal
# assay-method-text: NCI tumour cell line growth inhibition, 48 h
metric-name: TGI

Problem: Which TGI value belongs to NCCN1CCCCCc2ccccc21 ?
Solution: > 10 µM

Problem: Which TGI value belongs to CCOC(=O)c1c(N2CCCC2)[nH]c(=O)c(C(c2ccc(OC)cc2)c2c(O)c(C(=O)OCC)c(N3CCCC3)[nH]c2=O)c1O ?
Solution: > 100 µM

Problem: Which TGI value belongs to CCNc1nc(O)c(/C=C2\C=Nc3ncccc32)s1 ?
Solution: > 100 µM

====

# System: SW-620 colon
# assay-method-text: NCI tumour cell line growth inhibition, 48 h
metric-name: TGI

Problem: Which TGI value belongs to CN(/N=C1\C(=O)Nc2ccccc21)c1ccccc1 ?
Solution: > 100 µM

Problem: Which TGI value belongs to CC1=C(C(=O)Nc2ccccc2)C(c2ccc(N(C)C)cc2)C(C(=O)Nc2ccccc2)=C(C)N1 ?
Solution: > 83 µM

Problem: Which TGI value belongs to C[C@@H]1CC[C@@]2(C)C(C(=O)O)=CCCC2[C@@]1(C)CC(=O)c1ccoc1 (stereo not given in full) ?
Solution: > 25 µM

Problem: Which TGI value belongs to CC(=O)O[C@H]1C(=O)[C@@]2(C)C([C@H](OC(=O)c3ccccc3)[C@]3(O)C[C@H](OC(=O)[C@H](O)[C@@H](NC(=O)c4ccccc4)c4ccccc4)C(C)=C1C3(C)C)[C@]1(OC(C)=O)CO[C@@H]1C[C@@H]2O (stereo not given in full) ?
Solution: > 50 µM

Problem: Which TGI value belongs to O=c1[nH]c(NCc2ccncc2)nc2nc[nH]c12 ?
Solution: > 100 µM

====

Would you mind telling me the reported TGI of each entry?
# System: BT-549 breast
# assay-method-text: NCI tumour cell line growth inhibition, 48 h

Problem: Which TGI value belongs to O=C(/C=C/c1ccc(Cl)cc1)Oc1ccc(C=C2CCC/C(=C\c3ccc(OC(=O)/C=C/c4ccc(Cl)cc4)cc3)C2=O)cc1 ?
Solution: > 100 µM

Problem: Which TGI value belongs to COc1ccc(OC)c(NCC(=O)n2nc(/C=C\c3ccc(O)c(OC)c3)cc2/C=C\c2ccc(O)c(OC)c2)c1 ?
Solution: 5.7 µM

Problem: Which TGI value belongs to O=C1NC(=N[C@@H](CO)c2ccccc2)S/C1=C\c1ccc2ncccc2c1 ?
Solution: > 18.5 µM

Problem: Which TGI value belongs to CCc1c(O)cc(=O)oc1-c1ccc(OC)c(OC)c1 ?
Solution: > 100 µM

Problem: Which TGI value belongs to CCCCCOc1ccc(/C=N/Nc2cc(C)nc3ccc(Cl)cc23)cc1 ?
Solution: 3.28 µM

Problem: Which TGI value belongs to CCn1cc(C(=O)O)c(=O)c2cc(F)c(N3CCN(S(=O)(=O)c4cccc5ccccc45)CC3)cc21 ?
Solution: > 100 µM

Problem: Which TGI value belongs to c1c[nH]c(-c2cccc3nsnc23)c1 ?
Solution: > 100 µM

Problem: Which TGI value belongs to Cc1c(C(=N)C(C#N)C#N)c(=N)oc2c1ccc1ccccc12 ?
Solution: > 100 µM

Problem: Which TGI value belongs to O=C(c1ccco1)N(C(=O)N1CCCCC1)c1ccccc1 ?
Solution: > 100 µM

Problem: Which TGI value belongs to CC(Br)C(=O)NC(CO)C(=O)O (stereo unspecified) ?
Solution: > 100 µM

Problem: Which TGI value belongs to Cn1nc(-c2ccc(S(=O)(=O)/N=C(\NN)Nc3ccc(Cl)cc3)s2)cc1C(F)(F)F ?
Solution: 33.3 µM

====

# Test system: SK-OV-3 ovarian
# assay-method-text: NCI tumour cell line growth inhibition, 48 h
metric-name: GI50

Problem: Which GI50 value belongs to Cc1c(C(=N)C(C#N)C#N)c(=N)oc2c1ccc1ccccc12 ?
Solution: 21.3 µM

Problem: Which GI50 value belongs to O=C(Nc1cccc(-n2cc(-c3ccncc3)c(-c3cc(O)cc(Cl)c3)n2)c1)c1ccc(N2CCOCC2)c(C(F)(F)F)c1 ?
Solution: 9.63 µM

Problem: Which GI50 value belongs to OC1(c2ccc(Cl)c(C(F)(F)F)c2)CCN(CCCC(c2ccc(F)cc2)c2ccc(F)cc2)CC1 ?
Solution: 1.31 µM

====

Would you mind telling me the reported GI50 of each entry?

Problem: Entry COc1cc2c(cc1Nc1nc(N3CCc4ccccc43)c3cc[nH]c3n1)N(C(=O)CN(C)C)CC2 , system NCI-H460 lung: what GI50 was measured?
Solution: 1.29 µM

Problem: Entry O=C1NC(=N[C@@H](CO)c2ccccc2)S/C1=C\c1ccc2ncccc2c1 , system NCI-H460 lung: what GI50 was measured?
Solution: 7.75 µM

Problem: Entry O=C(NCCNCCO)c1ccc2c(c1)oc1cc3ccccc3c(=O)n12 , system NCI-H460 lung: what GI50 was measured?
Solution: 25.4 µM

====

Would you mind telling me the reported TGI of each entry?
# Test system: SN12C renal
# assay-method-text: NCI tumour cell line growth inhibition, 48 h

Problem: Entry COc1ccc(CNc2cnc3ccc(N)cc3n2)cc1 , system SN12C renal: what TGI was measured?
Solution: > 100 µM

Problem: Entry CO/N=C1\CC(NC(=O)C(F)(F)F)c2ccsc21 (stereo unspecified) , system SN12C renal: what TGI was measured?
Solution: > 100 µM

Problem: Entry CCN(C)c1nc(N(C)CC)c2nc(N(C)CC)nc(N(C)CC)c2n1 , system SN12C renal: what TGI was measured?
Solution: > 100 µM

Problem: Entry c1ccc(-c2[nH]ncc2-c2ccnc(-c3ccc(OCCn4ccnc4)cc3)c2)nc1 , system SN12C renal: what TGI was measured?
Solution: > 25 µM

Problem: Entry CCn1c2c(c3ccccc3c1=O)C(=O)c1ccccc1-2 , system SN12C renal: what TGI was measured?
Solution: > 100 µM

Problem: Entry O=c1c(F)cn2c(=O)n1CCCCCCCn1c(=O)c(F)cn(c1=O)CCCCCCC2 , system SN12C renal: what TGI was measured?
Solution: > 100 µM

====

# Tested on: CAKI-1 renal
# assay-method-text: NCI tumour cell line growth inhibition, 48 h
Would you mind telling me the reported TGI of each entry?

Problem: Which TGI value belongs to Cc1nc2ccc(Cl)cc2c(-n2ccnc2)c1CCn1ccnc1 ?
Solution: > 100 µM

Problem: Which TGI value belongs to Cc1c(N2CCOCC2)nc2ccc(Cl)cc2c1-c1ccccc1 ?
Solution: > 100 µM

Problem: Which TGI value belongs to c1ccc(C2=NC3OC2c2ccccc23)cc1 (stereo unspecified) ?
Solution: > 10 µM

Problem: Which TGI value belongs to NCCN1CCCCCc2ccccc21 ?
Solution: > 10 µM

Problem: Which TGI value belongs to COC(=O)c1ccccc1C1CN=NC12Cc1c(ccc(C)c1C)C2=O (stereo unspecified) ?
Solution: > 100 µM

Problem: Which TGI value belongs to Cn1c2ccccc2n2c3ncccc3c(=O)c(C#N)c12 ?
Solution: > 77.3 µM

Problem: Which TGI value belongs to CC(C)(CO)CNC(=O)c1ccc2[nH]c(O)c(N=Nc3ccc(S(N)(=O)=O)cc3)c2c1 ?
Solution: > 25 µM

Problem: Which TGI value belongs to CN(C)c1ccc(/C=C(\NC(=O)c2ccccc2)C(=O)NC(CC(=O)O)C(=O)O)cc1 (stereo unspecified) ?
Solution: > 100 µM

Problem: Which TGI value belongs to Cc1ccc2c(c1C)C(=O)C1(Cc3cc4c(cc3C1=O)CCC4)C2 (stereo unspecified) ?
Solution: > 100 µM

Problem: Which TGI value belongs to N#CC1(c2ccc(NC(=O)c3cccnc3NCc3ccncc3)cc2)CCCC1 ?
Solution: > 85.9 µM

Problem: Which TGI value belongs to COC(=O)C1C(C(=O)OC)C2C(=O)C3C(C(=O)OC)C(C(=O)OC)C3C(=O)C12 (stereo unspecified) ?
Solution: > 100 µM

Problem: Which TGI value belongs to O=C(CC(NC(=O)C(F)(F)F)C(=O)O)OCc1ccccc1 (stereo unspecified) ?
Solution: > 100 µM

Problem: Which TGI value belongs to O=C(Nc1ccc(N=C=S)cc1Cl)c1cc(Br)cc(Br)c1O ?
Solution: > 100 µM

Problem: Which TGI value belongs to O=C1NN(C2=NNC3(C(=O)N2)c2ccccc2-c2ccccc23)C(c2ccccc2)=N/C1=C/c1ccc(Cl)cc1 ?
Solution: > 150 µg/mL

Problem: Which TGI value belongs to CN(C)CCN(c1ccccn1)c1ccccn1 ?
Solution: > 100 µM

Problem: Which TGI value belongs to C[C@@H]1CC[C@@]2(C)C(C(=O)O)=CCCC2[C@@]1(C)CC(=O)c1ccoc1 (stereo partly specified) ?
Solution: > 25 µM

====

# Test system: NCI-H226 lung
# assay-method-text: NCI tumour cell line growth inhibition, 48 h
metric-name: TGI

Problem: Which TGI value belongs to Cc1ccc2c(c1)CN1c3ccc(C)cc3CN2C1c1ccccc1O ?
Solution: > 100 µM

Problem: Which TGI value belongs to C[n+]1cc2cc(O)c(O)cc2c2ccc3cc(O)c(O)cc3c21 ?
Solution: > 48.2 µM

Problem: Which TGI value belongs to COC(=O)c1ccccc1C1CN=NC12Cc1c(ccc(C)c1C)C2=O (centres undefined) ?
Solution: > 100 µM

Problem: Which TGI value belongs to C[C@@H]1CC[C@@]2(C)C(C(=O)O)=CCCC2[C@@]1(C)CC(=O)c1ccoc1 (some centres undefined) ?
Solution: > 25 µM

Problem: Which TGI value belongs to Cc1nc(N)nc(CCC(=O)Nc2cccc(C(F)(F)F)c2)c1-c1ccc(Cl)cc1 ?
Solution: > 100 µM

Problem: Which TGI value belongs to COCC([C@@H](O)C(O)C(=O)NCC[C@@H](C)c1nc(/C=C/CC2OC3(C[C@H](O)C2C)OC(C(C[C@H](O)C(C)[C@H](O)C(C)/C=C(C)/C(C)=C/C=C/C(C)=C/C#N)OC)[C@@H](OP(=O)(O)O)C3(C)C)co1)N(C)C (some centres undefined) ?
Solution: 0.000282 µM

Problem: Which TGI value belongs to O=C1Oc2ccccc2C(=O)/C1=C1/C=C(c2ccccc2)SS1 ?
Solution: > 100 µM

Problem: Which TGI value belongs to O=C1C=C[C@H](O)[C@@]2(CO)O[C@@H]12 ?
Solution: 50.7 µM

Problem: Which TGI value belongs to COc1cc2ccc3c4cc(OC)c(OC)cc4c[n+](C)c3c2cc1O ?
Solution: > 100 µM

Problem: Which TGI value belongs to c1ccc(C2=NC3OC2c2ccccc23)cc1 (centres undefined) ?
Solution: > 10 µM

Problem: Which TGI value belongs to CNCc1cccc2c1OCCOCCOCCN(C)S(=O)(=O)c1ccc(cc1)-c1cnc(N)c(n1)C(=O)N2 ?
Solution: 6.92 µM

Problem: Which TGI value belongs to Cc1ccc2cccc(-c3cccc4ccccc34)c2n1 ?
Solution: 74.5 µM

Problem: Which TGI value belongs to CCOC(=O)CSc1nc(N)c2c(-c3ccccc3)c3c(nc2n1)CCCC3 ?
Solution: > 100 µM

Problem: Which TGI value belongs to CCCCI(O)OS(=O)(=O)c1ccc(C)cc1 ?
Solution: > 100 µM

Problem: Which TGI value belongs to C[C@]12Cc3cn[nH]c3C(=O)C1CC[C@@H]1C2CC[C@@]2(C)C1CC[C@@H]2O (some centres undefined) ?
Solution: > 100 µM

Problem: Which TGI value belongs to Nc1ncnc2c1N=C(c1ccc3c(c1)OCO3)CC(c1ccc(Cl)cc1)N2 (centres undefined) ?
Solution: > 100 µM

Problem: Which TGI value belongs to CCN=c1sc2c(n1NC(=O)c1cc3ccc1CCc1ccc(cc1)CC3)C(=O)c1ccccc1C2=O ?
Solution: 7.33 µM

Problem: Which TGI value belongs to CCN(CC)Cc1cc(Nc2nc(NC3CCC(N(C)C)CC3)c3ccccc3n2)ccc1OC (centres undefined) ?
Solution: 16.8 µM

Problem: Which TGI value belongs to N#CC1(c2ccc(NC(=O)c3cccnc3NCc3ccncc3)cc2)CCCC1 ?
Solution: 75.1 µM
